Test system: Puccinia recondita f. sp. tritici
assay-details: Test H: wheat leaf rust, curative spray on inoculated wheat seedlings, visual disease rating
experimental-parameters: wheat leaf rust, sprayed after inoculation; 100 = 100% disease control, 0 = no disease control relative to controls
// values below are reported Test H disease control rating
recorded-metric: Test H disease control rating (%)

COc1ccc(-c2c(C)nn(C)c2Oc2ccc(C#N)cc2F)c(Br)c1 ... 0
Cc1nn(C)c(Nc2c(F)cc(F)cc2Cl)c1-c1ccc(Cl)cc1Cl ... 31
Cc1nn(C)c(Nc2ccc(F)cc2Cl)c1-c1ccc(C#N)cc1Cl ... 8
Cc1nn(C)c(C(O)c2c(F)ccc(F)c2F)c1-c1ccc(F)cc1Cl (racemic) ... 100
Cc1nn(C)c(Nc2ccc(F)cc2Cl)c1-c1ccc(Cl)cc1Cl ... 82
CCOc1ccc(Nc2c(-c3ccc(F)cc3Cl)c(C)nn2C)c(Cl)c1 ... 0
Cc1nn(C)c(Nc2ccc(F)cc2F)c1-c1c(Cl)cccc1Cl ... 0
Cc1nn(C)c(Nc2ccc(F)cc2Br)c1-c1ccc(F)cc1Br ... 91
Cc1nn(C)c(Oc2c(F)cc(C#N)cc2F)c1-c1cccnc1Cl ... 9
Cc1nn(C)c(Nc2cc([N+](=O)[O-])ccc2F)c1-c1ccc(F)cc1Cl ... 0
Cc1nn(C)c(Nc2ccc(F)cc2Cl)c1-c1ccc(F)cc1Br ... 94
Cc1nn(C)c(Oc2ccc(C#N)cc2F)c1-c1c(F)cccc1Cl ... 0
Cc1nn(C)c(Nc2c(Cl)cc(F)cc2Br)c1-c1ccc(F)cc1F ... 19
Cc1nn(C)c(Nc2ccc([N+](=O)[O-])cc2F)c1-c1ccc(F)cc1Cl ... 62
Cc1nn(C)c(Nc2ccc(Cl)cc2Cl)c1-c1c(Cl)cccc1Cl ... 0
Cc1nn(C)c(Nc2ccc(F)cc2F)c1-c1ccccc1Cl ... 0
Cc1nn(C)c(Nc2ncc(Cl)cc2Cl)c1-c1cccc(Cl)c1Cl ... 0
Cc1nn(C)c(Nc2ccc(F)cc2F)c1-c1ccc(C#N)cc1Cl ... 8
Cc1nn(C)c(Nc2c(Cl)cc(Br)cc2Cl)c1-c1ccc(F)cc1Cl ... 99
COc1ccc(Nc2c(-c3ccc(F)cc3Br)c(C)nn2C)c(Cl)c1 ... 63
Cc1nn(C)c(Nc2ccc(F)cc2Br)c1-c1c(Cl)cccc1Cl ... 0
Cc1nn(C)c(Nc2c(Cl)cc(F)cc2Cl)c1-c1ccc(F)cc1Br ... 9
Cc1nn(C)c(C(O)c2ccc(F)cc2)c1-c1ccc(F)cc1Cl (racemic) ... 9
Cc1nn(C)c(Oc2c(F)cc(C#N)cc2F)c1-c1cc(F)ccc1F ... 0
Cc1nn(C)c(Nc2ccc(F)cc2)c1-c1c(Cl)cccc1Cl ... 9
Cc1nn(C)c(Nc2ccc(Br)cc2F)c1-c1ccc(F)cc1Cl ... 9

----------
Measured Test B rating (% disease control), listed per entry.
Tested on: Botrytis cinerea
assay-details: Test B: tomato Botrytis, preventive spray on tomato seedlings, visual disease rating
experimental-parameters: tomato Botrytis; 100 = 100% disease control, 0 = no control relative to controls
recorded-metric: Test B rating (% disease control) (%)

Cc1nn(C)c(Nc2c(F)cc(F)cc2F)c1-c1cccc(F)c1F [compound 203] ... 99
COc1ccc(Cl)c(Nc2c(-c3c(F)cccc3F)c(C)nn2C)c1 [compound 215] ... 89
Cc1nn(C)c(Nc2ccc(Cl)cc2Cl)c1-c1ccc(F)cc1Cl [compound 299] ... 100
